Assay: in vitro
Conditions: human, Caco-2
ASSAY ENDPOINT: CC50 (µM)
One number for each entry, in µM.

COC(=O)N[C@H](C(=O)N1CCC[C@H]1c1nc(-c2ccc(-c3ccc(-c4c[nH]c([C@@H]5CCCN5C(=O)[C@@H](NC(=O)OC)C(C)C)n4)cc3)cc2)c[nH]1)C(C)C    67.6

Q: Entry `C=CCc1ccc(O)c(-c2ccc(O)c(CC=C)c2)c1` has what CC50?
Result: 18.4

====

Test: in vitro
Conditions: human
Structures can show the parent of a compound that is named as a salt.
Assignment: determine reported CC50 at 5 days for the given compounds.

Consider the reported CC50 at 5 days for these compounds:
NC(=O)c1nc(F)c[nH]c1=O [Favipiravir]    > 100 µM
CC(=O)Oc1ccccc1C(=O)Nc1ncc([N+](=O)[O-])s1 [Nitazoxanide]    8.3 µM
CC(c1cc2ccccc2s1)N(O)C(N)=O (stereo not drawn) [Zileuton]    > 100 µM
N#C[C@@]1(c2ccc3c(N)ncnn23)O[C@H](CO)[C@@H](O)[C@H]1O [GS-441524]    > 100 µM
Cc1cccc(/C=N/Nc2cc(N3CCOCC3)nc(OCCc3ccccn3)n2)c1 [Apilimod mesylate]    > 100 µM

The record that follows has no CC50 at 5 days shown yet.
Q: Entry O=c1c2ccccc2[se]n1-c1ccccc1 [Ebselen] has what CC50 at 5 days?
Result: 93.2 µM

Entry source: paper PMC11053489
